- ASSAY TARGET: hCCR8 (Y17A) (human, UniProt P51685 1-355)
- Sequence (P51685 whole entry Y17A): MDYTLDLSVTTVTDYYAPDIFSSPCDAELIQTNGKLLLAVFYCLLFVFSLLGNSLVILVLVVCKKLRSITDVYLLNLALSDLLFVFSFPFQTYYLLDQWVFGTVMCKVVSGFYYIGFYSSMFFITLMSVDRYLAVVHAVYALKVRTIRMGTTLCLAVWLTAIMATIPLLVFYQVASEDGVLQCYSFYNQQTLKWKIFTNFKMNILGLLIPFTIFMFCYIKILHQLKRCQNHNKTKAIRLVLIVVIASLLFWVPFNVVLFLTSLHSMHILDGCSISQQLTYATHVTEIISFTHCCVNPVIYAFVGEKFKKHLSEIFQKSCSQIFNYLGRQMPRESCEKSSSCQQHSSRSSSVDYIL
- ASSAY TEXT: flow cytometry, transfected Expi293 cells
READOUT: binding result

For orientation, consider the following solved cases.
[
  {
    "BINDER": "2C7 (antibody, V domains shown, mouse hybridoma antibody) VH: QVQLKQSGPSLVQPSQSLSITCTVSGFSLTAYGVHWIRQSPGKGQEWLGVIWRGGSTDYNAAFMSRLTITKDNSKSQVFFKMNSLQADDTAIYYCAKKGGSYAMDYWGQGTSVTVSS VL: DVVLTQTPLSLPVSLGGQASISCRSSQSLVHSNGNTYLHWYLQKPGQSPKLLIYKVSNRFSGVPDRFSGSGSGTDFTLKISRVEAEDLGVYFCSQSTQVPLTFGAGTKLELKR",
    "binding result": "no binding"
  },
  {
    "BINDER": "1H4 (antibody, V domains shown, mouse hybridoma antibody) VH: EVQLVESGGRLVQPKGSLKLSCAASGFTFNTYAMYWIRQAPGKGLEWVARIRSKSNNYATYYADSVKDRFTISRDDSQSMLYLQMNNLKTEDTAMYYCVRARFYYSDYGYAMDYWGQGTSVTVSS VL: DIVMTQAAPSVPVTPGESVSISCRSSKSLLHSNGNTYLYWFLQRPGQSPQLLIYRMSNLASGVPDRFSASGSGTAFTLRISRVEAEDVGVYYCMQHLEYPLTFGAGTKLELKR",
    "binding result": "no binding"
  },
  {
    "BINDER": "27G1 (antibody, V domains shown, mouse hybridoma antibody) VH: EVQLVESGGRLVQPKGSLKLSCAASGFAFNTYAMYWIRQAPGKGLEWVARIRSKSNNYATYYADSVKDRFTISRDDSQSMLYLQMNNLKTEDTAMYYCVRARFYYSDYGYAMDYWGQGTSVTVSS VL: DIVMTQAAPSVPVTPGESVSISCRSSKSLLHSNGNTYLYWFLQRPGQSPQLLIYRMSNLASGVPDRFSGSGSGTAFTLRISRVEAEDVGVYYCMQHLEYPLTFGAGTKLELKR",
    "binding result": "no binding"
  },
  {
    "BINDER": "10A11 (antibody, V domains shown, mouse hybridoma antibody; also called m10A11; clone No. 10A11) VH: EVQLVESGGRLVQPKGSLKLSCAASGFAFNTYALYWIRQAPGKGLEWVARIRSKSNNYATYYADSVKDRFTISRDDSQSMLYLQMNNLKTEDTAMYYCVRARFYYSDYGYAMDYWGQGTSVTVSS VL: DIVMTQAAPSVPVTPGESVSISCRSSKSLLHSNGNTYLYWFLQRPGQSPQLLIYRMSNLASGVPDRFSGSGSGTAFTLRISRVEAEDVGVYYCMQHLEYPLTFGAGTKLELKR",
    "binding result": "no binding"
  }
]

In the following, a different binder is considered.
Query: I would be grateful if you could share the reported binding result for 8F7 (antibody, V domains shown, mouse hybridoma antibody) VH: EVQLVESGGRLVQPKRSLKLSCAASGFTFNPYAMYWIRQAPGQGLEWVARIRSKSNNYATYYADSVKDRFTISRDDSQSMLYLQMNNLKTEDTAMYYCVRGHQGTMDYWGQGTSVTVSS VL: DIVMTQAAPSVPVTPGESVSISCRSSKSLLHSNGNTYLYWFLQRPGQSPQLLTYRMSNLASGVPDRFSGSGSGTAFTLRISRVEAEDVGVYYCMQHLEYPFTFGGGTKLEIKR .
Reply: no binding
